Molecular target: T1, PUF4 RNA-binding domain (Saccharomyces cerevisiae, UniProt P25339 537-888)
T1 sequence: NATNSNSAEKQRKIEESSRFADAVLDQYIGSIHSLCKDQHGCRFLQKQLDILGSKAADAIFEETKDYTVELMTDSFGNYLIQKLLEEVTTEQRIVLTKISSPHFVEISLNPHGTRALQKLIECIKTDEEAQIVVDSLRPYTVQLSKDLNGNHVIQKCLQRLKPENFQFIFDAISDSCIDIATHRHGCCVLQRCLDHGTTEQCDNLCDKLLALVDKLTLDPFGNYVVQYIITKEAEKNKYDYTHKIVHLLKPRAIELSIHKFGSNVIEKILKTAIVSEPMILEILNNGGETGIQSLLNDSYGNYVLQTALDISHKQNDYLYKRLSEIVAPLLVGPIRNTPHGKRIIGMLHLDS
Assay: Mg; RNA-MaP; 20 mM Na-HEPES pH 7.4, 30 mM KOAc, 0.75 mM MgCl2, 0.1% Tween-20, 5% glycerol, 0.1 mg/mL BSA, 2 mM DTT; 25 C; 0.0125-409.6 nM protein
Settings: tags: N-His6-TEV cleaved; C-SNAP kept, Cy3B-labelled; label: tethered on chip by stalled RNA polymerase

{"columns": ["Binder", "Result Unit", "Kd"],
 "data": [
  ["Ib_S2_P3E.1_K3.1_C3.1_H3.1_A3.1_[T5C]_F3.1_[A8T]_T3.1 (ssRNA) RNA: UUUGAUUAAUAUGAUAUCGUUCUUUCUUGUACAUUUUCUUUCUCGAUAUCAUAUUAAUCUUU", "nM", 1.62],
  ["UCUCUUCUUUCCGUAUAUAUAUCUCUU (ssRNA) [Ie_S1_P3E.2_K3.1_C3.2_H3.1_[+1TCC]_A3.1_F3.1_T3.2]", "nM", 534],
  ["Ic_S2_P4E.1_K4.1_C4.1_H4.1_A4.1_[T7A]_F4.1_[A9T]_T4.1 (ssRNA) RNA: UUUGAUUAAUAUGAUAUCGUUCUUUCUUGUAUAAUUUUCUUUCUCGAUAUCAUAUUAAUCUUU", "nM", 4.33],
  ["Ic_S2_P4E.1_K4.1_C4.1_H4.1_A4.1_[T5A]_[A6T]_[T7A]_F4.1_[T8A]_[A9C]_T4.1 (ssRNA) RNA: UUUGAUUAAUAUGAUAUCGUUCUUUCUUGUAAUAACUUCUUUCUCGAUAUCAUAUUAAUCUUU", "nM", 470],
  ["Ic_S2_P4E.1_K4.1_C4.1_H4.1_A4.1_[T5A]_F4.1_T4.1 (ssRNA) RNA: UUUGAUUAAUAUGAUAUCGUUCUUUCUUGUAAAUUAUUCUUUCUCGAUAUCAUAUUAAUCUUU", "nM", 0.874],
  ["UCUCUUACUGUAUAUAUGUCUCUU (ssRNA) [Id_ii_S1_P3E.2_K3.1_C3.2_[C-2A]_[T-1C]_H3.1_A3.1_F3.1_T3.2_[A10G]]", "nM", 17.2]
]}
